- protocol: Inhibition of PI4K3alpha (unknown origin) assessed as hydrolysis of ATP for 60 mins by ADP-Glo kinase assay
- Parameters: species or system Homo sapiens
experimental endpoint: IC50 (µM)
Give just the numeric value; µM need not be written.

Worked cases, answers included:
sample smiles	IC50, µM
COc1ccc(-c2c(C)nn3c(NCCNC(=O)C(C)C)cc(C)nc23)cc1OC	62.1
COc1ccc(-c2c(C)nn3c(NCCNS(C)(=O)=O)cc(C)nc23)cc1OC	29.3

What value of IC50 has been recorded for this entry: COc1ccc(-c2c(C)nc3c(NCCN4CCOCC4)ccnn23)cc1OC
27.5

---

- protocol: Inhibition of PI4K3alpha (unknown origin) assessed as hydrolysis of ATP for 60 mins by ADP-Glo kinase assay
- Parameters: species or system Homo sapiens
Listing of entries alongside the reported IC50.
Write it as a number; the unit µM goes unstated.

Value lookup for IC50; key = COc1ccc(-c2c(C)nn3c(NCCOC(C)=O)cc(C)nc23)cc1OC
29.5

Return reported IC50; argument: COc1ccc(-c2c(C)nc3c(NCCNC(C)=O)ccnn23)cc1OC
33.7

// returns reported IC50 for input COc1ccc(-c2c(C)nn3c(NCCNC(C)=O)cc(C)nc23)cc1OC
59.5

IC50 for COc1ccc(-c2c(C)nc3c(NCCNC(C)=O)cc(Cl)nn23)cc1OC ?
82.7

---

- System: Hepatitis C virus
- protocol: Antiviral activity in HCV 1b infected in HUH 7-lunet cells after 3 days by Dual-Glo luciferase assay
- Assay type: functional, cell-based, Hepacivirus hominis
- test conditions: genotype 1b, Huh-7, 72 h
Parameter: EC50. Scope: all listed entries.

Here is how some molecules turned out for EC50.
sample smiles	result
COc1ccc(-c2c(C)nn3c(NCCOC(C)=O)cc(C)nc23)cc1OC	960 nM
CC(=O)NCCNc1cc(Cl)nn2c(-c3ccc(F)c(C=O)c3)c(C)nc12	5300 nM
C[C@@]1(O)[C@H](O)[C@@H](CO)O[C@H]1n1ccc2c(N)ncnc21	210 nM
COc1ccc(-c2c(C)nn3c(NCCN4CCOCC4)cc(C)nc23)cc1OC	1030 nM
COc1ccc(-c2c(C)nn3c(NCCNS(C)(=O)=O)cc(C)nc23)cc1OC	910 nM

Param readout = EC50; param system = Hepatitis C virus; param query = COc1ccc(-c2c(C)nc3c(NCCNC(C)=O)ccnn23)cc1OC ; response: value
360 nM

Give Hepatitis C virus EC50 for COc1ccc(-c2c(C)nn3c(NCCNC(=O)C(C)C)cc(C)nc23)cc1OC
1210 nM

Find the measured EC50: item COc1ccc(-c2c(C)nc3c(NCCNC(C)=O)cc(Cl)nn23)cc1OC , target or system Hepatitis C virus.
290 nM

Query for Hepatitis C virus: what EC50 does the record show for COc1ccc(-c2c(C)nc3c(N)cc(Cl)nn23)cc1OC ?
210 nM

What measured EC50 is associated with COc1ccc(-c2c(C)nc3c(NCCN4CCOCC4)ccnn23)cc1OC on Hepatitis C virus?
370 nM

Tell me reported EC50 for COc1ccc(-c2c(C)nn3c(NCCNC(C)=O)cc(C)nc23)cc1OC , tested with Hepatitis C virus.
1030 nM

---

- protocol: Inhibition of PI4K3beta (unknown origin) assessed as hydrolysis of ATP for 60 mins by ADP-Glo kinase assay
- Set-up: species or system Homo sapiens
Below is a list of entries, each paired with its recorded IC50 value.
Answer format: number, then unit.

Which IC50 value is on record for COc1ccc(-c2c(C)nc3c(N)cc(Cl)nn23)cc1OC ?
83 nM
